Every entry's value here was drawn from patent US20240376076A1.

Assay: mouse liver microsomal stability (Microsome Assay Protocol)
Type: in vitro ADME
Conditions: pH 7.4; mouse liver microsomes, NADPH, 37° C.; read-out: MLM t1/2, min
Method: ND refers to not disclosed. • 1. Buffer A: 1.0 L of 0.1 M monobasic Potassium Phosphate buffer containing 1.0 mM EDTA Buffer B: 1.0 L of 0.1 M Dibasic Potassium Phosphate buffer containing 1.0 mM EDTA • Buffer C: 0.1 M Potassium Phosphate buffer, 1.0 mM EDTA, pH 7.4 by titrating 700 mL of buffer B with buffer A while monitoring with a pH meter. • 2. […]
Threshold-based label: half-life at 1 µM under 30 min gives T, half-life at 1 µM not under 30 min gives F.

| compound | classification |
| --- | --- |
| CN(C)CCCOc1ccc2c(=O)n(CC3(O)CCN(C(=O)C(Cn4ccc(F)n4)N(C)CCNC(=O)c4ccc5c(Cl)c(C(N)=O)cnc5c4)CC3)cnc2c1 (stereo not drawn) | F |
| CN(C)CCCOc1ccc2c(=O)n(CC3(O)CCN(C(=O)C(CCCNC(=O)c4ccc5c(Cl)c(CO)cnc5c4)Cc4ccccc4)CC3)cnc2c1 (stereo not drawn) | F |
| CN(C)CCCOc1ccc2c(=O)n(CC3(O)CCN(C(=O)[C@H](CCCNC(=O)c4ccc5c(Cl)c(C(=O)NC6CC6)cnc5c4)Cc4ccccc4)CC3)cnc2c1 | F |
| O=C(NCCCC(Cn1ccc(F)n1)C(=O)N1CCC(O)(Cn2cnc3ccccc3c2=O)CC1)c1ccc2c(Cl)c(C(=O)NC3CC3)cnc2c1 (stereo not drawn) | T |
| O=C(CCn1ccnc1)Nc1ccc2c(=O)n(CC3(O)CCN(C(=O)C(CCCNC(=O)c4ccc5c(Cl)ccnc5c4)Cc4ccccc4)CC3)cnc2c1 (stereo not drawn) [Compound 63] | T |
| CN(C)CCC(=O)Nc1ccc2c(=O)n(CC3(O)CCN(C(=O)[C@H](CCCNC(=O)c4ccc5c(Cl)c6c(nc5c4)CCC6)Cc4ccccc4)CC3)cnc2c1 [Compound 114] | T |
| CN(C)CCCOc1ccc2c(=O)n(CC3(O)CCN(C(=O)[C@H](CCCNC(=O)c4ccc5c(Cl)c(C6CC6)cnc5c4)Cc4ccccc4)CC3)cnc2c1 | F |
| CN1CCN(CCC(=O)Nc2ccc3c(=O)n(CC4(O)CCN(C(=O)C(CCCNC(=O)c5ccc6c(Cl)ccnc6c5)Cc5ccccc5)CC4)cnc3c2)CC1 (stereo not drawn) | T |
| CN(C)CCCOc1ccc2c(=O)n(CC3(O)CCN(C(=O)[C@@H](CCCNC(=O)c4ccc5c(Cl)c(C(=O)NC6CC6)cnc5c4)Cc4ccccc4)CC3)cnc2c1 | F |
| CN(C)CCOc1cc(F)c2c(=O)n(CC3(O)CCN(C(=O)C4CCN(CCNC(=O)c5ccc6c(Cl)ccnc6c5)CC4c4ccccc4)CC3)cnc2c1 (stereo not drawn) [Compound 112] | F |
| CN(C)C1CCN(c2ccc3c(=O)n(CC4(O)CCN(C(=O)[C@H](CCCNC(=O)c5ccc6c(Cl)cc(C7CC7)nc6c5)Cc5ccccc5)CC4)cnc3c2)CC1 [Compound 123] | T |
| CC(C)c1cnc2cc(C(=O)NCCN3CCC(C(=O)N4CCC(O)(Cn5cnc6cc(OCCN7CCNCC7)ccc6c5=O)CC4)C(c4ccccc4)C3)ccc2c1Cl (stereo not drawn) [Compound 108] | T |

---

Target: USP7, Active human recombinant protein (Homo sapiens)
Construct: purchased CP Lot; 20200225001
Sequence (Q93009 whole entry): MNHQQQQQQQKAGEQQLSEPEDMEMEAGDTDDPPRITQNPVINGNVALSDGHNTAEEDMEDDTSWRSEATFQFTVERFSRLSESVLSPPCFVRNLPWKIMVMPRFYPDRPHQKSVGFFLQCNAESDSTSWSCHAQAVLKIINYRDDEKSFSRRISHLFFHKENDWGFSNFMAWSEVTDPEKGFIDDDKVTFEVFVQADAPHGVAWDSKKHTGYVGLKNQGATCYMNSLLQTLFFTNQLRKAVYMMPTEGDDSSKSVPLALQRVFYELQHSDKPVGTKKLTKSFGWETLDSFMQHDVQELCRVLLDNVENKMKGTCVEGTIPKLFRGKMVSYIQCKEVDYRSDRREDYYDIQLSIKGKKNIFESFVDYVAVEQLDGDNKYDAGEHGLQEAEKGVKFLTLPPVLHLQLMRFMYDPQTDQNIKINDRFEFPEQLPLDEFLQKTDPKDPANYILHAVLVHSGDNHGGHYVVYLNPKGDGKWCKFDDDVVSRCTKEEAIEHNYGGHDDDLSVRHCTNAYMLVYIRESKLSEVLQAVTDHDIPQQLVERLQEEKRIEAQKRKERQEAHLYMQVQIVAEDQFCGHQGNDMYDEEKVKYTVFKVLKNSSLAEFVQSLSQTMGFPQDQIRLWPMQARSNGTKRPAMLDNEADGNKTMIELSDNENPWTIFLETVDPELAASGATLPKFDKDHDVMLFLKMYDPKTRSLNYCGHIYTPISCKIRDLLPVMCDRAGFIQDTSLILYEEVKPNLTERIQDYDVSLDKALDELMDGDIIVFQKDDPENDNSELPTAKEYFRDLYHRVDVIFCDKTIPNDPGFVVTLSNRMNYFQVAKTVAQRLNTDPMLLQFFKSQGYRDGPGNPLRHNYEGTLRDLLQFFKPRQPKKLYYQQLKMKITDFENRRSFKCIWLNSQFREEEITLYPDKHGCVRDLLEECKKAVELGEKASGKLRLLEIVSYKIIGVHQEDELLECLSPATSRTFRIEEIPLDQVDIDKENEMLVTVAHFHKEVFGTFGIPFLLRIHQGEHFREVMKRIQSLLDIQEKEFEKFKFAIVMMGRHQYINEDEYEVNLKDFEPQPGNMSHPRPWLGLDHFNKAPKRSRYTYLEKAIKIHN
Test: USP7 assay (Ubiquitin-Rhodamine 110 enzymatic assay)
Format: biochemical
Conditions: read-out: IC50

| molecule | IC50 |
| --- | --- |
| CN1CCN(CCC(=O)Nc2ccc3c(=O)n(CC4(O)CCN(C(=O)C(CCCNC(=O)c5ccc6c(Cl)cc(C7CC7)nc6c5)Cc5ccccc5)CC4)cnc3c2)CC1 (stereo not drawn) | 20 to 100 nM |
| CN(C)CCC(=O)Nc1ccc2c(=O)n(CC3(O)CCN(C(=O)C(CCCNC(=O)c4cc5c(Cl)ccnc5[nH]4)Cc4ccccc4)CC3)cnc2c1 (stereo not drawn) | > 1000 nM |
| CN(C)CCOc1cc(F)c2c(=O)n(CC3(O)CCN(C(=O)[C@H](CCCNC(=O)c4ccc5c(Cl)cc(C6CC6)nc5c4)Cc4ccccc4)CC3)cnc2c1 | 100 to 1000 nM |
